growth values, listed per item
System: U251 CNS
Assay: NCI-60 one-dose screen, 48 h (100 = growth as untreated, 0 = no growth, -100 = all killed)
Details: 10 µM unless noted
Experimental: Growth inhibition of the U251 human tumor cell line is measured as a screen for anti-cancer activity. Cells are grown in 96 well plates and exposed to the test compound for 48 hours. Compounds are tested at a single concentration, which is 10^-5 M for most compounds. The reported endpoint is percent growth (GI% or GIPRCNT), where numbers from 0 - 100% represent growth inhibition, and numbers from -100% - 0 represent cell death. For example, a value of 40 represents 60% growth inhibition. […]
The panel holds about 83,000 compounds, 20% with a hit somewhere; the sample as a whole holds those more often. The source made the active and inactive calls. How the source made its calls: active means growth percent below 10; inactive means the rest.
ATTRIBUTE MEASURED: growth

[[record]]
substance_smiles = "Cc1c(Br)cccc1NC(=O)c1sc2nc3c(cc2c1N)CN(Cc1ccccc1)CC3"
value_observed = "9.19% (active)"

[[record]]
substance_smiles = "COc1ccc(-c2cn(-c3ccc(Cl)cc3)c(=S)[nH]2)cc1OC"
value_observed = "75% (inactive)"

[[record]]
substance_smiles = "CN1CC=C(c2cc(NC(=O)Nc3ccc(Oc4ccnc(NC(=O)C5CC5)c4)c(F)c3)cc(C(F)(F)F)c2)CC1"
value_observed = "-1.77% (active)"

[[record]]
substance_smiles = "Cc1cc2ccccc2c[n+]1CC(=O)c1ccc(-c2ccccc2)cc1"
value_observed = "42.7% (inactive)"


* * *

growth values, listed per item
tested on: ACHN renal; assay: NCI-60 one-dose screen, 48 h (100 = growth as untreated, 0 = no growth, -100 = all killed); conditions: 10 µM unless noted
Compounds without any hit were thinned out: in the full panel of roughly 83,000, 20% have a hit.
ATTRIBUTE MEASURED: growth (%)

[[record]]
compound = "O=C(Nc1ccc(S(=O)(=O)NC2CCCCCC2)cc1)C(c1ccccc1)S(=O)(=O)c1ccc(F)cc1 (stereo not given)"
unit_abbreviation = "%"
value_observed = 0.641

[[record]]
compound = "NC(=O)C(O)(c1ccccc1)c1ccccc1"
unit_abbreviation = "%"
value_observed = 108

[[record]]
compound = "COc1cc(C2=N/C(=C\\c3cc4ccccc4nc3Oc3ccccc3)C(=O)N2C(=N)N)cc(OC)c1OC"
unit_abbreviation = "%"
value_observed = 61.9

[[record]]
compound = "C=C(C)[C@@H]1CC[C@]2(C(=O)O)CC[C@]3(C)[C@H](CC[C@@H]4[C@@]5(C)C[C@@H](CC#Cc6ccc(Cl)cc6)C(=O)C(C)(C)[C@@H]5CC[C@]43C)[C@@H]12"
unit_abbreviation = "%"
value_observed = 48.2

[[record]]
compound = "Nc1c(C(=O)Nc2ccccn2)sc2nc3c(cc12)CCCCC3"
unit_abbreviation = "%"
value_observed = 52.6

[[record]]
compound = "Cc1cnc(SCc2ccc(Cl)cc2Cl)nc1Nc1ccc(Cl)c(Cl)c1"
unit_abbreviation = "%"
value_observed = 96.4

[[record]]
compound = "CCSc1nc(Cl)c(C#N)c(-c2ccc(F)cc2)n1"
unit_abbreviation = "%"
value_observed = 100

[[record]]
compound = "CCOC(=O)C1=C(C)n2nc(CC#N)c(C#N)c2NC1c1ccc(Cl)cc1 (stereo not given)"
unit_abbreviation = "%"
value_observed = 90.8

[[record]]
compound = "COc1ccc(C2N(c3cc(OC)c(OC)c(OC)c3)C(=O)C2(F)F)cc1F (stereo not given)"
unit_abbreviation = "%"
value_observed = 60.8

[[record]]
compound = "N#Cc1c(-c2ccc(F)cc2)nc(N/N=C/c2cccc(O)c2)nc1N1CCOCC1"
unit_abbreviation = "%"
value_observed = 66.9

[[record]]
compound = "COc1ccc(Cl)c([N+](=O)[O-])c1"
unit_abbreviation = "%"
value_observed = 107

[[record]]
compound = "COc1cc2cc(c1Cl)N(C)C(=O)C[C@H](OC(=O)[C@H](C)N(C)C(=O)CCS)C[C@]1(C)O[C@H]1[C@H](C)[C@@H]1C[C@@](O)(NC(=O)O1)[C@H](OC)/C=C/C=C(\\C)C2"
unit_abbreviation = "%"
value_observed = 25.4

[[record]]
compound = "O=C(CCCC(=O)Nc1ccc(-n2nnc3cc(Cl)c(Cl)cc32)cc1)Nc1ccc(-n2nnc3cc(Cl)c(Cl)cc32)cc1"
unit_abbreviation = "%"
value_observed = 66.2

[[record]]
compound = "Cc1nnc(/N=C2\\NC(=O)/C(=C/c3ccsc3)S2)s1"
unit_abbreviation = "%"
value_observed = 106

[[record]]
compound = "N#Cc1c(NC(=O)c2cccs2)[n+]([O-])c2cc(C(F)(F)F)ccc2[n+]1[O-]"
unit_abbreviation = "%"
value_observed = 102

[[record]]
compound = "COc1cc(-c2csc(NC(=O)Nc3ccc(C(F)(F)F)cc3)n2)cc(OC)c1OC"
unit_abbreviation = "%"
value_observed = 3.21

[[record]]
compound = "S=c1ssnc1-c1cc2ccccc2o1"
unit_abbreviation = "%"
value_observed = 80.3

[[record]]
compound = "O=C(Nc1ccc(N=Cc2ccccc2O)cc1)NC1C=c2ccccc2=CC1 (stereo not given)"
unit_abbreviation = "%"
value_observed = 102

[[record]]
compound = "C#CCN(CCCOc1ccc(Cl)cc1Cl)CCCSC(=O)CCCCCN1/C(=C\\C=C2/CCCC(/C=C/C3=[N+](CCCCCC(=O)[O-])c4ccccc4C3(C)C)=C2Cl)C(C)(C)c2ccccc21"
unit_abbreviation = "%"
value_observed = 102

[[record]]
compound = "O=C1CCc2ccccc2N1"
unit_abbreviation = "%"
value_observed = 100


* * *

system: SK-MEL-5 melanoma; assay: NCI-60 one-dose screen, 48 h (100 = growth as untreated, 0 = no growth, -100 = all killed); settings: 10 µM unless noted
Compounds without any hit were thinned out: in the full panel of roughly 83,000, 20% have a hit. Active and inactive are the calls of the source. How the source made its calls: active means growth percent below 10; inactive means the rest.
ATTRIBUTE MEASURED: growth

[[record]]
molecule = "O=C1C(=O)c2c(nc3ccc(C(F)(F)F)cn23)-c2ccccc21"
value_observed = "-99.2% (active)"

[[record]]
molecule = "CCC1S/C(=N\\N=C(/C)c2ccc[nH]2)N(c2ccccc2)C1=O (configuration not stated)"
value_observed = "79% (inactive)"

[[record]]
molecule = "CCOC(=O)C1=C(C)n2nc(CC#N)c(C#N)c2NC1c1ccc(CC)cc1 (configuration not stated)"
value_observed = "96.6% (inactive)"

[[record]]
molecule = "COc1ccc2[nH]c(-c3ccccc3)c(C=C(C#N)C#N)c2c1"
value_observed = "8.94% (active)"

[[record]]
molecule = "c1ccc(-c2cn3ccnc3c(-c3ccc4c(c3)ncn4C3CCCCC3)n2)cc1"
value_observed = "94.3% (inactive)"

[[record]]
molecule = "CNCc1cccc2c1OCCOCCOCCN(CCN1CCOCC1)S(=O)(=O)c1ccc(cc1)-c1cnc(N)c(n1)C(=O)N2"
value_observed = "76.6% (inactive)"

[[record]]
molecule = "COc1ccc(C(=O)c2cc(OC)c(C)c(OC)c2)cc1OC(=O)CCl"
value_observed = "9.8% (active)"

[[record]]
molecule = "O=c1c2ccccc2oc2ccc(OCCCCCN3CCCCCC3)cc12"
value_observed = "-35.2% (active)"

[[record]]
molecule = "Nc1c(C(=O)Nc2ccccn2)sc2nc3c(cc12)CCCCC3"
value_observed = "22.2% (inactive)"

[[record]]
molecule = "COc1ccc2nc3nc4ccc[nH]c4cc3c2c1"
value_observed = "88.6% (inactive)"

[[record]]
molecule = "CC(C)(C)c1nn(-c2ccccc2)c2c1COCN2Cc1ccc(Cl)cc1"
value_observed = "82.2% (inactive)"

[[record]]
molecule = "N#Cc1nc(-c2ccccc2)oc1S(=O)(=O)NCC(c1ccc(Cl)cc1)N1CCCCC1 (configuration not stated)"
value_observed = "73.8% (inactive)"

[[record]]
molecule = "COC(=O)c1ccc2c(c1)n(Cc1ccc3ccccc3c1)c[n+]2Cc1ccc2ccccc2c1"
value_observed = "4.24% (active)"

[[record]]
molecule = "O=C1NN(c2ccccc2)C(c2ccc(Cl)cc2)N2CCC[C@H]12 (some centres not stated)"
value_observed = "96.1% (inactive)"

[[record]]
molecule = "CC(C)CSc1nc(Nc2ccccc2)c(C#N)c(-c2ccc(F)cc2)n1"
value_observed = "80.5% (inactive)"

[[record]]
molecule = "Cc1c(Cl)cccc1NC(=O)c1sc2nc3c(cc2c1N)CN(Cc1ccccc1)CC3"
value_observed = "49.1% (inactive)"

[[record]]
molecule = "CCCCn1c(=O)c(/C=C/C(=O)/C=C/c2cc3ccccc3n(CCCC)c2=O)cc2ccccc21"
value_observed = "-74.5% (active)"

[[record]]
molecule = "COC(=O)c1oc2c(C(=O)/C=C/c3ccc(OC)cc3)c(OCCCN3CCCCC3)ccc2c1C"
value_observed = "-60.9% (active)"

[[record]]
molecule = "COc1cc(NCC(=O)Nc2cc(Nc3ccc(C)cc3)ncn2)c(Cl)c(OC)c1Cl"
value_observed = "91.6% (inactive)"

[[record]]
molecule = "C=C(C)[C@@H]1CC[C@]2(C(=O)OCCOCCOCC[P+](c3ccccc3)(c3ccccc3)c3ccccc3)CC[C@]3(C)[C@H](CC[C@@H]4[C@@]5(C)CC[C@H](OC(C)=O)C(C)(C)[C@@H]5CC[C@]43C)[C@@H]12"
value_observed = "-98.5% (active)"

[[record]]
molecule = "C=C1C(=O)O[C@H]2[C@H]1CC/C(COC(=O)NCc1nc3ccccc3[nH]1)=C\\CC[C@@]1(C)O[C@@H]21"
value_observed = "97% (inactive)"

[[record]]
molecule = "CCOC(=O)c1ccc(Nc2ncnc3ccc(NC(=O)c4ccccc4)cc23)cc1"
value_observed = "84.6% (inactive)"

[[record]]
molecule = "COc1cc(-c2csc(NC(=O)Nc3cc(Cl)cc(Cl)c3)n2)cc(OC)c1OC"
value_observed = "54.5% (inactive)"

[[record]]
molecule = "COCCOCCOCc1n(Cc2ccc3ccccc3n2)c2ccccc2[n+]1Cc1ccc2ccccc2n1"
value_observed = "-14.6% (active)"

[[record]]
molecule = "C=C1C(=O)O[C@H]2[C@H]1CC/C(COC(=O)Nc1nc3ccccc3[nH]1)=C\\CC[C@@]1(C)O[C@@H]21"
value_observed = "83.7% (inactive)"

[[record]]
molecule = "OCCNc1nc(NCCO)nc(Nc2ccc(C3=NN(c4cc(Cl)cc(Cl)c4)C(c4ccc(Cl)cc4)C3)cc2)n1 (configuration not stated)"
value_observed = "24.9% (inactive)"

[[record]]
molecule = "COC(=O)[C@]1(C)CCC[C@]2(C)[C@H]3C[C@H]4C(C(C)C)=C[C@]3(CC[C@H]21)[C@@H]1C(=O)N(CCC#N)C(=O)[C@@H]14"
value_observed = "71.6% (inactive)"

